Data provenance is PubChem BioAssay AID1986.

assay procedure: inhibitors of HIV fusion peptide binding, primary screen, biochemical, uHTS, fluorescence dequenching (AID 1986)
experimental parameters: cell-free peptide binding, 30 min, at 20 µM
Hit rate of the full screen: of about 290,000 compounds, about 890 (0.31%) were called active. No stated cut-off is given here; in the data, active means inhibition mostly above about 52% (no sharp cut-off); inactive means mostly below about 76%. The list comes from a sample in which actives are over-represented; it also holds close analogues and randomly drawn compounds.
Classes used: active, inactive

compound=S=c1[nH]nc(-c2ccccc2)n1/N=C/C=C/c1ccco1 assigned_label=inactive
compound=N#C/C(=C\c1ccc(-c2ccc(S(=O)(=O)N3CCOCC3)cc2)o1)C(=O)NC1CC1 assigned_label=inactive
compound=O=C(O)c1cc(-c2ccco2)nc2cc3ccccc3cc12 assigned_label=inactive
compound=N#C/C(=C\c1ccc(N2CCOCC2)o1)C(=O)NC1CCCCC1 assigned_label=active
compound=Cc1cccc(C)c1NC(=O)CN(C)C(=O)c1ccccc1C(=O)N(C)Cc1ccccc1 assigned_label=inactive
compound="Cc1ccc(/C=C(\\C#N)C(=O)NCC2CCCO2)o1 (stereo not drawn)" assigned_label=inactive
compound=Cc1ccc(S(=O)(=O)N/N=C/c2cc([N+](=O)[O-])ccc2O)cc1[N+](=O)[O-] assigned_label=inactive
compound=COc1ccc(S(=O)(=O)/N=C2/NC(=O)/C(=C\c3cc(OC)c(OC)cc3[N+](=O)[O-])S2)cc1 assigned_label=inactive
compound=Cc1ccc(S(=O)(=O)CCSc2cccc(C(=O)O)c2)cc1 assigned_label=inactive
compound=CC(C)=NNc1nc2sc3c(c2c(=O)[nH]1)CC(C)(C)OC3 assigned_label=inactive
compound="COC(=O)c1sc2ccccc2c1NC(=O)c1ccc(S(=O)(=O)N2CC(C)CC(C)C2)cc1 (stereo not drawn)" assigned_label=inactive
compound=Cc1cccc(C)c1Nc1nnc(SCC(=O)c2ccc3c(c2)NC(=O)CO3)s1 assigned_label=inactive
compound="O=C(Nc1ccccc1)c1ccc(NCC2CCCO2)c(S(=O)(=O)N2CCOCC2)c1 (stereo not drawn)" assigned_label=inactive
compound=O=C(NCc1cc([N+](=O)[O-])ccc1O)c1cccc(NS(=O)(=O)c2ccccc2)c1 assigned_label=inactive
compound="CCOc1cc(/C=N/N=C2/NC(=O)C(CC(=O)O)S2)ccc1OCc1ccccc1Cl (stereo not drawn)" assigned_label=inactive
compound=COc1ccccc1-c1c(C(F)(F)F)oc2cc(OCC(=O)Nc3ccccc3C(F)(F)F)ccc2c1=O assigned_label=inactive
compound=COCCN(C(=O)Nc1ccc(OC)cc1OC)C1CCN(C(C)C)CC1 assigned_label=inactive
compound=CCCCNC(=O)Nc1nnc(SCC(=O)OCC)s1 assigned_label=inactive
compound=O=C(/C=C/c1ccco1)Nc1cccc(C(=O)Nc2ccccc2C(=O)O)c1 assigned_label=inactive
compound=COc1ccc([N+](=O)[O-])cc1NC(=O)COC(C)=O assigned_label=inactive
compound=O=C(/C=C/c1ccc([N+](=O)[O-])cc1)Nc1cccc(C(=O)Nc2ccccc2C(=O)O)c1 assigned_label=active
compound="O=C1S/C(=C/c2ccccc2)C(=O)N1CC(O)Cn1c2ccccc2c2ccccc21 (stereo not drawn)" assigned_label=inactive
compound="CSCc1ccc(C(=O)NC2CC(C)(C)Cc3c2cnn3-c2ccc(F)cc2)o1 (stereo not drawn)" assigned_label=inactive
compound=CCOc1ccc(NC(=O)CSc2ncn[nH]2)c([N+](=O)[O-])c1 assigned_label=inactive
compound=Cc1cccc(Nc2nc(C)cc(C)n2)c1 assigned_label=inactive
compound="COc1cc(/C=N/N=C2/NC(=O)C(CC(=O)O)S2)ccc1OCc1ccc(Cl)cc1 (stereo not drawn)" assigned_label=active
compound="Cc1ccc(C(=O)CC(C(=O)O)n2cncn2)cc1 (stereo not drawn)" assigned_label=inactive
compound=CCN=C1S/C(=C\c2ccc(-c3cccc(C(=O)O)c3)o2)C(=O)N1CC assigned_label=inactive
compound="N#C/C(=C\\c1ccc(-c2ccc(C(=O)O)cc2)o1)C(=O)NCC1CCCO1 (stereo not drawn)" assigned_label=inactive
compound=COC(=O)c1cccc(NC(=O)/C=C/c2ccc([N+](=O)[O-])cc2)c1 assigned_label=inactive
compound=N#C/C(=C\c1ccc(N2CCCCC2)o1)C(=O)Nc1cccc(Br)c1 assigned_label=inactive
compound=CCOc1cc(/C=N/NC(=O)CN2CCCCC2)ccc1OCc1ccc(Cl)cc1 assigned_label=inactive
compound=N#C/C(=C/c1ccc(-c2ccc(Br)cc2)o1)C(=O)NC1CCCCC1 assigned_label=inactive
compound=CC(C)(C)NC(=O)CSc1ccc(C(C)(C)C)cc1 assigned_label=inactive
compound=Cc1cc(NC(=O)CCCC(=O)N(CC(=O)NC2CCCCC2)c2ccccc2)no1 assigned_label=inactive
compound="O=C1S/C(=C\\c2ccccc2)C(=O)N1CC(O)Cn1c2ccccc2c2ccccc21 (stereo not drawn)" assigned_label=inactive
compound="CN(C)c1ccc(/C=C2\\SC(=O)N(CC(O)Cn3c4ccccc4c4ccccc43)C2=O)cc1 (stereo not drawn)" assigned_label=active
compound=Cc1ccc(S(=O)(=O)N/N=C\c2cc([N+](=O)[O-])ccc2Cl)cc1 assigned_label=inactive
